molecular target: UGT2B7 (Homo sapiens); construct: expressed in transfected cells; microsomal fraction; experiment: Inhibition of R- and S-oxazepam glucuronidation in rUGT2B7 microsomes (UGT-overexpressing HEK293); format: biochemical; conditions: human, pH 7.4, rUGT2B7 microsomes, 100 µM cannabinoid; read-out: Inhibition of R-oxazepam glucuronidation
Sequence (P16662 24-529): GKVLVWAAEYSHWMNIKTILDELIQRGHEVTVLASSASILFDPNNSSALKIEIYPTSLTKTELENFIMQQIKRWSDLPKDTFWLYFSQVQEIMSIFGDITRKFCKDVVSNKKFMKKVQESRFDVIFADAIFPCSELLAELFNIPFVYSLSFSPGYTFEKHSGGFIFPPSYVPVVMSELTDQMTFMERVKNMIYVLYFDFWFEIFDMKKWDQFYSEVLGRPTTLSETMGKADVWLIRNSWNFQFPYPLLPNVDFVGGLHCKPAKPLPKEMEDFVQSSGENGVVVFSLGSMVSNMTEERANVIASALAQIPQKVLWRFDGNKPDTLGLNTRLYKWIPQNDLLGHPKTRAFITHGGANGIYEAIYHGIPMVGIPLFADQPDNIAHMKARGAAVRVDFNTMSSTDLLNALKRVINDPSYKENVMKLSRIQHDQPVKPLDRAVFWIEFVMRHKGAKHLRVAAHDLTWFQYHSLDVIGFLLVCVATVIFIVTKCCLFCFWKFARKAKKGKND
Test readout: inhibition at 2 h, 100 µM (%)
A number alone suffices; assume %.

Lookup result for C=C(C)[C@@H]1CCC(C)=C[C@H]1c1c(O)cc(CCCCC)cc1O ; measured inhibition at 2 h, 100 µM: 95

###

biological target: UGT2B15 (Homo sapiens); construct: expressed in transfected cells; cell homogenate; experiment: Inhibition of S-oxazepam glucuronidation in rUGT2B15 homogenate/microsomes (UGT-overexpressing HEK293); assay type: biochemical; details: human, pH 7.4; rUGT2B15 microsomes, 100 µM cannabinoid; range over the four cannabinoids; read-out: Inhibition of S-oxazepam glucuronide formation
Sequence (P54855 24-530): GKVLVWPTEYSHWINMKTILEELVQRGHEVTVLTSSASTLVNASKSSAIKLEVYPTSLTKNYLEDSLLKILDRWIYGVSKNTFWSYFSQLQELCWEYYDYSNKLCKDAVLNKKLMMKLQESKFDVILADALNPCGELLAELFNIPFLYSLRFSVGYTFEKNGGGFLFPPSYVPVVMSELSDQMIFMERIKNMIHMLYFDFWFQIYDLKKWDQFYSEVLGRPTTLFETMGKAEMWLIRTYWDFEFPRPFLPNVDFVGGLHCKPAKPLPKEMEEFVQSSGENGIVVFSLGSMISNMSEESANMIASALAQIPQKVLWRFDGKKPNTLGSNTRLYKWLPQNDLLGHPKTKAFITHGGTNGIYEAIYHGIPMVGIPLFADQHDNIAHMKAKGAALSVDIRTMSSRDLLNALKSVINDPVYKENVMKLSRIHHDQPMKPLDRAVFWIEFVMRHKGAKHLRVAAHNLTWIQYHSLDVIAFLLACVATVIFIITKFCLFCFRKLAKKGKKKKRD
Test readout: inhibition at 2 h, 100 µM

Lookup result for C=C(C)[C@@H]1CCC(C)=C[C@H]1c1c(O)cc(CCCCC)cc1O [CBD, cannabidiol] ; measured inhibition at 2 h, 100 µM: 83 to 91%
